// data source = patent EP0700399B1

Quick note: these are MIC numbers for system: Staph. aureus rifa-r^(1)
The reply should contain only the number, in µg/mL.

CCn1cc(C(=O)OCC(=O)O[C@H]2[C@H](C)[C@H](O)[C@H](C)[C@@H](O)[C@@H](C)/C=C/C=C(/C)C(=O)NC3=CC(=O)c4c(c(O)c(C)c5c4C(=O)[C@@](C)(O/C=C/[C@H](OC)[C@H]2C)O5)C3=O)c(=O)c2cc(F)c(N3CCN(C)CC3)cc21 [Compound C23] :: 0.06
CCn1cc(C(=O)OCC(=O)O[C@H]2[C@H](C)[C@H](O)[C@H](C)[C@@H](O)[C@@H](C)/C=C/C=C(/C)C(=O)Nc3c(C=NN4CCN(C5CCCC5)CC4)c(O)c4c5c(c(C)c(O)c4c3O)O[C@](C)(O/C=C/[C@H](OC)[C@H]2C)C5=O)c(=O)c2cc(F)c(N3CCN(C)CC3)cc21 [Compound C26] :: 0.13
CCn1cc(C(=O)OCC(=O)O[C@H]2[C@H](C)[C@H](O)[C@H](C)[C@@H](O)[C@@H](C)/C=C/C=C(/C)C(=O)Nc3c(C=NN4CCN(C)CC4)c(O)c4c5c(c(C)c(O)c4c3O)O[C@](C)(O/C=C/[C@H](OC)[C@H]2C)C5=O)c(=O)cc1N1CCN(C)CC1 [Compound C30] :: 0.5
CO[C@H]1/C=C/O[C@@]2(C)Oc3c(C)c(O)c4c(c3C2=O)C(=O)C=C(NC(=O)/C(C)=C\C=C\[C@H](C)[C@H](O)[C@@H](C)[C@@H](O)[C@@H](C)[C@H](OC(=O)CBr)[C@@H]1C)C4=O [Compound C1, 36-Bromorifamycin S] :: 0.25

Form field MIC for item CCn1cc(C(=O)OCC(=O)O[C@H]2[C@H](C)[C@H](O)[C@H](C)[C@@H](O)[C@@H](C)/C=C/C=C(/C)C(=O)NC3=C(N4CCOCC4)C(=O)c4c(c(O)c(C)c5c4C(=O)[C@@](C)(O/C=C/[C@H](OC)[C@H]2C)O5)C3=O)c(=O)c2cc(F)c(N3CCN(C)CC3)cc21 [Compound C24] on Staph. aureus rifa-r^(1): 0.06

MIC on Staph. aureus rifa-r^(1) for CCn1cc(C(=O)OCC(=O)O[C@H]2[C@H](C)[C@H](O)[C@H](C)[C@@H](O)[C@@H](C)/C=C/C=C(/C)C(=O)Nc3c(C=NN4CCN(C)CC4)c(O)c4c5c(c(C)c(O)c4c3O)O[C@](C)(O/C=C/[C@H](OC)[C@H]2C)C5=O)c(=O)c2cnc(N3CCN(C)CC3)nc21 [Compound C28] is 0.13

Bench note, Staph. aureus rifa-r^(1): entry CO[C@H]1/C=C/O[C@@]2(C)Oc3c(C)c(O)c4c(c3C2=O)C(=O)C(N2CCOCC2)=C(NC(=O)/C(C)=C\C=C\[C@H](C)[C@H](O)[C@@H](C)[C@@H](O)[C@@H](C)[C@H](OC(=O)CBr)[C@@H]1C)C4=O [Compound C8, 36-Bromo-3-(4-morpholinyl)rifamycin S] , its MIC = 0.5
